All values here come from PubChem BioAssay (NCI).

System: MALME-3M melanoma
Protocol text: NCI-60 one-dose screen, 48 h
Condition description: 10 µM unless noted
This is part of a sample that, as a whole, favours compounds with a hit. Of some 83,000 tested, about 20% had one in any assay. Active and inactive are the calls of the source. How the source made its calls: active means growth percent below 10; inactive means the rest.
Labels: 1 for active, 0 for inactive

{"columns": ["Compound", "Assigned label"],
 "data": [
  ["COc1ccc2c(c1)nnn1c3ncccc3c(N=O)c21", 1],
  ["Cc1c(C(C)(C)C)cc(C(C)(C)C)c2c1CN(C)CO2", 0],
  ["O=C1CN(CCN2CC(=O)NC(=O)C2)CC(=O)N1", 0],
  ["NC(=O)C1=C[C@H]2[C@H]3C=C[C@@]2(O)C(=O)O[C@@H]3O1", 1],
  ["COc1cc(C(=O)NNC(=O)c2ccccc2C(=O)O)cc(OC)c1OC", 0],
  ["CC(=O)Nc1ccc([I+]c2ccc([N+](=O)[O-])cc2)cc1", 0],
  ["CCC(N)(C(=O)O)c1ccc(F)cc1 (stereo unspecified)", 0],
  ["COc1cc(NC(=O)C#Cc2ccccc2)c(OC)cc1Cl", 0],
  ["COc1cccc(-c2nc3sccn3c2-c2ccnc(NCCNC(=O)c3ccccc3)n2)c1", 0],
  ["COc1ccc2c(c1)OC(N(C(C)=O)C(C)=O)=C(C#N)C2c1ccc(F)cc1 (stereo unspecified)", 0],
  ["CCc1c(C)c2cc3c(c(C)c2oc1=O)OCC(=O)N3", 0]
]}
